Below: a set of entries, each annotated with reported enrichment ratio.
B1: PhoQ; a variant is named by its letters at X, in order, P23837 (parent)
chain: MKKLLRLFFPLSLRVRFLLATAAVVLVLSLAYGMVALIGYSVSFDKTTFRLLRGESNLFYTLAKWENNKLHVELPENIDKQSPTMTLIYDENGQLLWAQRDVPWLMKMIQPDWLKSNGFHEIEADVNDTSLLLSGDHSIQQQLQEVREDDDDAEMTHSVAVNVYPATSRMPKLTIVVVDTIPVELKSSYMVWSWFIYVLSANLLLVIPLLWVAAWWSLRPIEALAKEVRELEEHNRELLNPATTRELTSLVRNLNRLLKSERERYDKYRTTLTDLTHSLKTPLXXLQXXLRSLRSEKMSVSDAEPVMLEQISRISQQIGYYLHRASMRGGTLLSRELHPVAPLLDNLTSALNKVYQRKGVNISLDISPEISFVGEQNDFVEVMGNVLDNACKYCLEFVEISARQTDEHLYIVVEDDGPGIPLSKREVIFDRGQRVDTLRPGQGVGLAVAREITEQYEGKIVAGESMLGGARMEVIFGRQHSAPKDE

# Variants of: B1
# procedure text: enrichment ratio after two sorts for PhoP signalling (ratio (wild type AVST 3.29)); higher = more functional
# protocol conditions: with PhoP (E. coli)
Over roughly 140,000 sequences, “enrichment ratio after two sorts for PhoP signalling” has its median near 0; the highest 2% begin near 11. The sample as a whole holds a higher share of the highest values than the screen did.
Form rule: numeric answer, no unit written next to it.

# annotated cases, reported enrichment ratio shown
> print(dat)
   mutation.list          property  quantitative.result
1           GDIQ  enrichment ratio                 17.5
2           GSMV  enrichment ratio                 17.2
3           GSCS  enrichment ratio                 5.76

*Q* Return the recorded enrichment ratio value; entry: "GSCV"
*A* 16.6

*Q* Return the recorded enrichment ratio value; entry: "GSCA"
*A* 0.424

*Q* Return the recorded enrichment ratio value; entry: "GSCL"
*A* 21.5

*Q* Return the recorded enrichment ratio value; entry: "GDIT"
*A* 14

*Q* Return the recorded enrichment ratio value; entry: "TQNH"
*A* 16.3

*Q* Return the recorded enrichment ratio value; entry: "GSIV"
*A* 8.6
